Reference source for all entries: the array DNA melting data of Ke et al. (doi:10.1101/2024.01.08.574731)

ASSAY INFO: folding enthalpy; higher = less favourable; fluorescence melt of hairpins on a sequencing array, two-state fit
CONDITION: sodium 0.088 M
EXPERIMENTAL READOUT: folding enthalpy (kcal/mol)
Quick note: give the figure in kcal/mol, leave out the unit.

>>> observed_value("GTGCAACGAAAGTTTCAC (((.(((....))).)))")
-21.4
>>> observed_value("GCTATTCGAAAGAAAGC (((.(((....))))))")
-20.1
>>> observed_value("GTCATCGAAAGATTTGAC ((((((....)))..)))")
-13.2
>>> observed_value("GATCAAGGAAACTTGATC (((((((....)))))))")
-46.6
>>> observed_value("GAAGATGGAAACATCTCC (.(((((....))))).)")
-16.3
>>> observed_value("GCTTCGCGAAAGCATAGC (((..((....))..)))")
-14.5
>>> observed_value("GCCCCCGCGAAAGCGGGC (((..(((....))))))")
-4.3
>>> observed_value("GGTACGGGAAACTGTACC (((((.(....).)))))")
-34.3
>>> observed_value("GTTGCAGGAAACTGTAGC (.(.(((....))).).)")
-19.9
>>> observed_value("GGACTACCGAAAGGTTCC (((..(((....))))))")
-11.2

Quick one: folding enthalpy for GATCTCAGCAGAGATC ((((((....)))))) ?
-31.9

Look up folding enthalpy for this sequence: GGGATGCGAAAGCACCC (((.(((....))))))
-21.4

Field request: folding enthalpy | item: GTACTTGGAAACGAGTAC (((((.(....).)))))
-33.6

Bench note: what folding enthalpy did GATCGGCCTCCCGATC ((((((....)))))) show?
-35

Look at this sequence and give its reported folding enthalpy. GCGATAGGAAACTGTCGC ((((.((....)).))))
-50.7

// lookup folding enthalpy for CCGTGGAAACACGG (((((....)))))
-29.2

Value lookup for folding enthalpy; key = GGCAGGCGAAAGCCCGCC (((.(((....))).)))
-22.8

Fill blank: measured folding enthalpy of the sequence GGCGTACGAAAGTAGGCC (((.(((....))).))) is ____.
-36.6

folding enthalpy lookup needed for GTCGCGGCGAAAGCCGAC (((..(((....)))))) , thanks.
-7.7

State the recorded folding enthalpy for this entry: GACGATGGAAACACCATC ((.(.((....)).).))
-17

What value of folding enthalpy has been reported for the following sequence? GATCTGACTTCAGATC ((((((....))))))
-34.2

Please give the measured folding enthalpy for this sequence: GATCGCCTTTGCGATC ((((((....))))))
-38.6

Which folding enthalpy reading was recorded for the sequence GACACAGGAAACTGTGCC (.(((((....))))).) ?
-14.9

Look up folding enthalpy: GATCCTAACTAGGATC ((((((....))))))
-36.2

folding enthalpy lookup needed for GATCCCCTCCGGGATC ((((((....)))))) , thanks.
-36

* * *

ASSAY INFO: folding enthalpy; higher = less favourable; fluorescence melt of hairpins on a sequencing array, two-state fit
CONDITION: sodium 0.088 M
EXPERIMENTAL READOUT: folding enthalpy (kcal/mol)
The reply should contain only the number, in kcal/mol.

Examples with their reported folding enthalpy follow.
>>> observed_value("GGGTGAGGAAACTCGCCC (((.(((....))).)))")
-34
>>> observed_value("GCGGGGTTCCGC ((((....))))")
-18.7
>>> observed_value("GATCTCTCGGAGATC ((((((...))))))")
-37.1

Data request, read-out folding enthalpy, for GTGCTCCGAAAGGATCAC (((.(((....))).)))
-31.9

Could you share which folding enthalpy value was measured for GATCTTAACAAGATC ((((((...)))))) ?
-31.9

Field request: folding enthalpy | item: GATCTGCCGACAGATC ((((((....))))))
-29.7

Request the reported folding enthalpy associated with GCATGCGAAAGCACTTGC ((((((....)))..)))
-15.4

Dear colleague, I am looking for the recorded folding enthalpy of the following sequence: GTGTACGGAAACGCACAC ((((.((....)).))))
-38.1

Sample GCTATGCGAAAGCAGCGC ((..(((....)))..)) — what was its folding enthalpy?
-18.9

Suppose we examine the sequence GCAGTCGAAAGACCTGC ((((((....))).))) ; what folding enthalpy value has been reported?
-29.9

# lookup: folding enthalpy of GTAAACGGAAACGTCTAC (((.(((....))).)))
-21.2

// lookup folding enthalpy for GATCGCATTGGCGATC ((((((....))))))
-33.2

* * *

ASSAY INFO: melting temperature; fluorescence melt of hairpins on a sequencing array, two-state fit, raised by 9.35 °C to match UV melts
CONDITION: sodium 0.088 M
The following sequences are listed with their measured Tm values.
Number in °C, nothing else.

The following sequences have reported results that may help.
>>> observed_value("GTTTTCGGAAACGAAGAC ((.((((....)))).))")
42.5
>>> observed_value("GGCTAAGGAAACTCAGCC ((((.((....)).))))")
38.1
>>> observed_value("GCACACTCGAAAGAGTGC (((..(((....))))))")
38

Fill in the blank: the reported Tm of GCCACCGGAAACGATGGC ((((.((....)).)))) is ____.
52.6

What value of measured Tm is listed for GCAATGCCGAAAGGCTGC (((..(((....)))))) ?
49.1

* * *

ASSAY INFO: folding enthalpy; higher = less favourable; fluorescence melt of hairpins on a sequencing array, two-state fit
CONDITION: sodium 0.088 M
The entries below come with measured folding enthalpy values attached.
Give the value in kcal/mol but do not write kcal/mol after it.

Example sequences with recorded folding enthalpy:
>>> observed_value("GCGGAGTGCCGC ((((....))))")
-13.7
>>> observed_value("GCGTAGCGAAAGCTATGC ((.((((....)))).))")
-18
>>> observed_value("GGGGTGGGAAACCGCTCC ((.(.((....)).).))")
-21.9
>>> observed_value("GTCATCGAAAGATGTGAC ((((((....)))..)))")
-13.4
>>> observed_value("GGGAAGGGAAACCTTTCC ((.((((....)))).))")
-24.4
>>> observed_value("GTCAGCTCGAAAGAGGAC (((..(((....))))))")
-17.7
>>> observed_value("GTCAGAGGAAACTCTGGC (.(((((....))))).)")
-30.4
>>> observed_value("GTAAGCGAAAGCTCGTAC ((((((....)))..)))")
-8.1

// folding enthalpy lookup, key: GATCAGTGGACTGATC ((((((....))))))
-37

Quick check: folding enthalpy of GTACTACGAAAGTATAC (((.(((....)))))) ?
-15.3

Could you tell me which folding enthalpy is on file for GGCCTACGAAAGTAAGCC (((.(((....))).))) ?
-35

Fill in: folding enthalpy of CGGACGGAAACGTAACCG ((((((....)))..))) is ___
-28.7

Quick check: folding enthalpy of GATCTGCACACAGATC ((((((....)))))) ?
-43.9

* * *

ASSAY INFO: melting temperature; fluorescence melt of hairpins on a sequencing array, two-state fit, raised by 9.35 °C to match UV melts
CONDITION: sodium 0.088 M
Category scheme (Tm): category 1: < 40 °C; category 2: ≥ 40 °C and < 50 °C; category 3: ≥ 50 °C

Solved entries (count: 5):
>>> category("GGTCCTGGAAACAAGACC ((((.((....)).))))")
"category 1"
>>> category("GACCGCGGAAACGTGGTC ((((.((....)).))))")
"category 3"
>>> category("GCGTGACCACGC ((((....))))")
"category 3"
>>> category("GAATGGGCGAAAGCCTTC (((..(((....))))))")
"category 1"
>>> category("GAACACGAAAGTGTCTTC ((((((....)))..)))")
"category 3"

Band for the recorded Tm of GAGTGCGAAAGCAGGCTC ((((((....)))..))) ?
category 2

Bin? GTTTATGGAAACATGAAC (((.(((....))).)))
category 1

* * *

ASSAY INFO: melting temperature; fluorescence melt of hairpins on a sequencing array, two-state fit, raised by 9.35 °C to match UV melts
CONDITION: sodium 0.088 M
Reported Tm values follow for various sequences
Your answer should be a plain number; it is taken to be in °C.

Here is how some sequences turned out for Tm.
>>> observed_value("GGGACCACGAAAGTGCCC (((..(((....))))))")
40
>>> observed_value("GATCAGTCGCTGATC ((((((...))))))")
49.8
>>> observed_value("GCTCACACGAAAGTGAGC (((..(((....))))))")
60.5

Which Tm value belongs to GGTTCGGGAAACCGGATC (.(.(((....))).).) ?
38.2

I'd like to know its Tm. The sequence in question is GCCAGGGGAAACCCTAGC ((.((((....)))).))
41

Need Tm of GATGGCGGAAACACCACC (.(((.(....).))).) , thanks.
30.2

I would be grateful if you could share the reported Tm for GCGTCAGGACGC ((((....)))) .
56.5
